Recorded pIC50, one value per entry.
Molecular target: human recombinant DGK ξ (Homo sapiens (Human))
Sequence (Q13574 whole entry): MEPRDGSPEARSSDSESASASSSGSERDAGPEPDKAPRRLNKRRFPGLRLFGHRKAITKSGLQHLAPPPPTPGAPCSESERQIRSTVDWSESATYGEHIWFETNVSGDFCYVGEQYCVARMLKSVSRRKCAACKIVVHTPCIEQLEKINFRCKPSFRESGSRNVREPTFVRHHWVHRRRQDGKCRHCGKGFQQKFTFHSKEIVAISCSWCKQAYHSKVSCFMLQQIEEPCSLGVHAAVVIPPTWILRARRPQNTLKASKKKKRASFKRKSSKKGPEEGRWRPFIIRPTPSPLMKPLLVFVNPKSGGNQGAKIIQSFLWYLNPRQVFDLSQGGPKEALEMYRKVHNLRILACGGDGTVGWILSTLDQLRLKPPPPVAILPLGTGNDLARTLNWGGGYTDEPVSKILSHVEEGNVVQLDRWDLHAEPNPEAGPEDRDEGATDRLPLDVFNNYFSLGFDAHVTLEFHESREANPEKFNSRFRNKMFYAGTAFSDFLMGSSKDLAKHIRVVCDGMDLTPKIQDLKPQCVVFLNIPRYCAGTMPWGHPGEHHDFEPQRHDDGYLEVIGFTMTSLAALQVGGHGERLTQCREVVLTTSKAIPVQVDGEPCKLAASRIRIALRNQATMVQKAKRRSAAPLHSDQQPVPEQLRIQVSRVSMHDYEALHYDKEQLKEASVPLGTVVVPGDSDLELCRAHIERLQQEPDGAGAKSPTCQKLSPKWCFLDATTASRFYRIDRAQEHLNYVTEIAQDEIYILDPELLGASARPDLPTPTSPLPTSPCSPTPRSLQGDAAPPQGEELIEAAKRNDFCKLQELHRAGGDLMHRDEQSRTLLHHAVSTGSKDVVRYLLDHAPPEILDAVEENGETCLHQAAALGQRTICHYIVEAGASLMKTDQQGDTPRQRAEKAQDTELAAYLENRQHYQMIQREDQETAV
Assay: Evaluation of DGK ξ inhibitory effect (ADP-Glo Kinase Assay)
Type: biochemical
Settings: ADP-Glo luminescence
Formally, pIC50 is defined as -log10 of the concentration c, with c in mol/L.

Recorded pIC50 for CN[C@H]1CCN2CCN(c3c(NC(=O)c4ccn(-c5ccnnc5)n4)ccc(Oc4ccccc4F)c3C(F)(F)F)C[C@H]12 , please?
8.28

Recorded pIC50 for CN1CCN(c2c(NC(=O)c3coc(-c4ccnnc4)n3)ccc(OC3CCCC3)c2C(F)(F)F)C[C@@H]1CN , please?
8.30

Recorded pIC50 for CNC[C@H]1CN(c2c(NC(=O)c3ccn(CC(F)F)n3)ccc(C3CCCC3)c2C(F)(F)F)CCN1C , please?
6.82

Recorded pIC50 for CNC[C@H]1CN(c2c(NC(=O)c3coc(-c4ccnnc4)n3)ccc(Oc3ccccc3F)c2Cl)CCN1C , please?
8.12

Recorded pIC50 for CNC[C@H]1CN(c2c(NC(=O)c3ccn(-c4ccnnc4)n3)ccc(C3=CCOCC3)c2C(F)(F)F)CCN1C , please?
7.26

Next:
Recorded pIC50 for CNC[C@H]1CN(c2c(NC(=O)c3ccn(-c4ccnnc4)n3)ccc(OC3CC3)c2C(F)(F)F)CCN1C , please?
6.96

Recorded pIC50 for CN1CCN(c2c(NC(=O)c3ccn(CC(F)F)n3)ccc(Oc3ccc(F)cc3F)c2C(F)(F)F)C[C@@H]1CN , please?
6.89

Recorded pIC50 for CN1CCN(c2c(NC(=O)c3coc(-c4ccnnc4)n3)ccc(Oc3ccccc3Cl)c2Cl)C[C@@H]1CN , please?
9.38

Recorded pIC50 for Cc1cc(C(F)(F)F)n2nc(C(=O)Nc3ccc(Oc4ccccc4)c(C(F)(F)F)c3N3CCC[C@@H](CN)C3)cc2n1 , please?
6.55

Recorded pIC50 for CNC[C@H]1CN(c2c(NC(=O)c3coc(-c4ccnnc4)n3)ccc(Oc3ccccc3)c2C(F)(F)F)CCN1C , please?
7.34

Source listed as patent US20240043403A1.
